# pKi per record follows
# testedTarget: D(2) dopamine receptor (Homo sapiens)
# Sequence (P14416 whole entry): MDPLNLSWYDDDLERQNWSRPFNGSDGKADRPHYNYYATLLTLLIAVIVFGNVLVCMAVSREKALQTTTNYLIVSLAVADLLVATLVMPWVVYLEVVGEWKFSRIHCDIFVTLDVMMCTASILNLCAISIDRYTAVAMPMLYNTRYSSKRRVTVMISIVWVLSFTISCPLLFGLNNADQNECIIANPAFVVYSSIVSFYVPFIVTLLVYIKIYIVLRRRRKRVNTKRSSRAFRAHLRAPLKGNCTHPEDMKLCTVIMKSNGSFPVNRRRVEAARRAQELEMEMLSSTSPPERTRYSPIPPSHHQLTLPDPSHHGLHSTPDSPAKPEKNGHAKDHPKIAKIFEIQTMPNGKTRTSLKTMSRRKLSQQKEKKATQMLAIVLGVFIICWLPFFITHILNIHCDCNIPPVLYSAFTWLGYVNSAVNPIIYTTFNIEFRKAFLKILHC
Reminder that pKi means the negative base-10 logarithm of the concentration expressed in mol/L.

# count of solved cases: 3
[
  {
    "molecule": "COc1ccccc1N1CCN(CCCCNC(=O)/C=C/c2cccc(C(F)(F)F)c2)CC1",
    "testedTarget": "D(2) dopamine receptor (Homo sapiens)",
    "pKi": 7.30
  },
  {
    "molecule": "COc1ccccc1N1CCN(CCCCNC(=O)/C=C/c2ccc(C(F)(F)F)cc2)CC1",
    "testedTarget": "D(2) dopamine receptor (Homo sapiens)",
    "pKi": 7.43
  },
  {
    "molecule": "COc1ccccc1N1CCN(CCCCNC(=O)/C=C/c2ccsc2)CC1",
    "testedTarget": "D(2) dopamine receptor (Homo sapiens)",
    "pKi": 7.89
  }
]

Recall and state the measured pKi for COc1ccccc1N1CCN(CCCCNC(=O)/C=C/c2ccc(Oc3ccccc3)cc2)CC1 . 7.19

Recall and state the measured pKi for COc1ccccc1N1CCN(CCCCNC(=O)/C=C/c2ccc(C(C)(C)C)cc2)CC1 . 6.89

Recall and state the measured pKi for COc1ccccc1N1CCN(CCCNC(=O)Cc2ccc3ccccc3c2)CC1 . 7.25

Recall and state the measured pKi for COc1ccccc1N1CCN(C2CC3CC(NC4CC5CC(N6CCN(c7ccccc7OC)CC6)CC5C4)CC3C2)CC1 (stereo unspecified) . 6.99

Recall and state the measured pKi for COc1ccc2cc([C@H](C)C(=O)NCCCN3CCN(c4ccccc4OC)CC3)ccc2c1 . 7.02
